# TESTED SYSTEM: EPHB1 (UniProt P54762)
# Sequence (P54762 whole entry, looked up): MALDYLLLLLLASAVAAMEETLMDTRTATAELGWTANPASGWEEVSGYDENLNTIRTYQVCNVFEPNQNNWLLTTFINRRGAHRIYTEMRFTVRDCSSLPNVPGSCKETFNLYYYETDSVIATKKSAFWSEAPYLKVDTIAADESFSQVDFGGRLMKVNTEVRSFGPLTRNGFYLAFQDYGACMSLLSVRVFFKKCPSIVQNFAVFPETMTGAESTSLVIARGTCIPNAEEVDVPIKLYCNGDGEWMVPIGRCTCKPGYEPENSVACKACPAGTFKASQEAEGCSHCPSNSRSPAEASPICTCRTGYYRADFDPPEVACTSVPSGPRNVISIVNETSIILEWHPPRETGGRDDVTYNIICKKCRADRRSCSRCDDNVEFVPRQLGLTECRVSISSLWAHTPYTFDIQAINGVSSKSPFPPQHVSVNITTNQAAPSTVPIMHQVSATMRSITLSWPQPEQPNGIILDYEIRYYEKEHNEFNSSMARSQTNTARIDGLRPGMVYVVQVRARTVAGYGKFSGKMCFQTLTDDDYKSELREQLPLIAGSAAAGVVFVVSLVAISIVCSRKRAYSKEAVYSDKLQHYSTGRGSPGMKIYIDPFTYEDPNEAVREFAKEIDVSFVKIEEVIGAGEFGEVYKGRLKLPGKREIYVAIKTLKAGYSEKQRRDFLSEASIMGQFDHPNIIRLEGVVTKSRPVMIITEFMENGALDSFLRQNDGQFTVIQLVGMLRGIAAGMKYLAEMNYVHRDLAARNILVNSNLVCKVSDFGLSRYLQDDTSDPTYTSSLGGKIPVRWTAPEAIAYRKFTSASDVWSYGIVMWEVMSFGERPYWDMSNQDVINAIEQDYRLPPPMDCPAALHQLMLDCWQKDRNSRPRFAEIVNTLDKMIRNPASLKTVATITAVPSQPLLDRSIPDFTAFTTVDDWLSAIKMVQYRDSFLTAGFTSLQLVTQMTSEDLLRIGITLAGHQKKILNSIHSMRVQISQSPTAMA
# EXPERIMENT DESCRIPTION: phosphorylation enrichment, bacterial display (enrichment ratio); higher = better substrate or ligand; peptides without Tyr show the background;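 also: 11-residue human phosphosite peptides and single-mutation variants displayed on the E. coli surface, counted by deep sequencing, each peptide's frequency after selection divided by its frequency in the unselected input library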;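 also: frequency after pTyr selection over input frequency; kinase dosed for 20-30% of maximal phosphorylation in three min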
Cut-off 0.5 on phosphorylation enrichment, inclusive. At or above means True; below means False.

ORDERED RESIDUES | ANSWER LABEL
LFMGDYVDRGY [PPP2CA_Y86] | True

Query string: Has FCRHNYGVGES [HLA-DRB1_Y112_V115G_YF] a recorded phosphorylation enrichment greater than or equal to 0.5?
Result string: False

Query string: Is reported phosphorylation enrichment greater than or equal to 0.5 here: MKVPLYETPAG [PGM5_Y358_V357L]
Result string: True

Query string: Hello, I need to know if TTASRYLKVSD [MYOM2_Y871_N869S] has measured phosphorylation enrichment not below 0.5. Thanks!
Result string: False

Query string: Would you say GGFTRYCDGKK [PROS1_Y266_C265R_YF] shows phosphorylation enrichment at minimum 0.5?
Result string: False

Query string: Determine whether measured phosphorylation enrichment meets or exceeds 0.5 for EILLSYLRTGF [TGM1_Y365_YF]
Result string: False

Query string: Please indicate if the recorded phosphorylation enrichment for HAVFVYDICHV [TWNK_Y508_YF] meets or exceeds 0.5.
Result string: True

Query string: Decide: phosphorylation enrichment of VSAPEYGPKLK [TBC1D14_Y46_L41V] >= 0.5?
Result string: False

Query string: Does phosphorylation enrichment meet or surpass 0.5 for LFPANYVAPMT [GRAP2_Y324] ?
Result string: True

Query string: For this sequence, is measured phosphorylation enrichment 0.5 or higher? KFWREYILSLE [GPC3_Y299_YF]
Result string: True
